test.system: T1, human Nectin-4 (Homo sapiens, UniProt Q96NY8)
T1 sequence (Q96NY8 32-510): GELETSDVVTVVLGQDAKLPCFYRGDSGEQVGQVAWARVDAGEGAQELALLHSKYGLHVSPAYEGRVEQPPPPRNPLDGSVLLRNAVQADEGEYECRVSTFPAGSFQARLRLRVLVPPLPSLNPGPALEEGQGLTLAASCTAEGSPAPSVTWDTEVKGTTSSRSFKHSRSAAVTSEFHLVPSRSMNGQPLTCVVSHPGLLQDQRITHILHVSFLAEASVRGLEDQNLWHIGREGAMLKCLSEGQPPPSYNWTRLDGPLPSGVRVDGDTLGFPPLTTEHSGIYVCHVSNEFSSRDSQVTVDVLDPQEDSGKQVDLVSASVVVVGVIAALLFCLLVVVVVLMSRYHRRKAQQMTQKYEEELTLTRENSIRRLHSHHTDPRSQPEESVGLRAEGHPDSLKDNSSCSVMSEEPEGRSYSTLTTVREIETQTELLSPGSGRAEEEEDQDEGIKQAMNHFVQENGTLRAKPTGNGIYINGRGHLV
assay.notes: Binding to human Nectin-4 by SPR
run.parameters: SPR association constant; second set (Table 7)
Protocol: The antibodies in Table 3 of Example 3 were cloned as human IgG1 isotype antibodies, produced and purified, then tested for binding to human Nectin-4. Affinity of the 16 humanized variants, as well as their association and dissociation constants were assessed by SPR analysis. Table 4 summarizes all the calculated constants (Affinity constant KD (nM), association constant ka (1/Ms) and dissociation constant kd (1/s)). […]
Overview of reported ka across a group of molecules:
Write it as a number; the unit M⁻¹ s⁻¹ goes unstated.

Field: example entries. Status: answers known.
{"molecule": "H4L3 (antibody, human IgG1, V domains shown, human IgG1 isotype) VH: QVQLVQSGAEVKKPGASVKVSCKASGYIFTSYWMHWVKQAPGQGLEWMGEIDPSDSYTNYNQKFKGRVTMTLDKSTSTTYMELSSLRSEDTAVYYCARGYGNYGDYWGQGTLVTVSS VL: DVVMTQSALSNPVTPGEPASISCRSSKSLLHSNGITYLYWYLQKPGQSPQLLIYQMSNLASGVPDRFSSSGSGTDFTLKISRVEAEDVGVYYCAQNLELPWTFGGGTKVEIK", "ka / M⁻¹ s⁻¹": 250000}
{"molecule": "H0L0 (antibody, human IgG1, V domains shown, human IgG1 isotype; also called HOLO; humanized 5E7 variant H0L0) VH: QVQLVQSGAEVKKPGASVKVSCKASGYTFTSYWMHWVRQAPGQGLEWMGEIDPSDSYTNYNQKFKGRVTMTRDTSTSTVYMELSSLRSEDTAVYYCARGYGNYGDYWGQGTLVTVSS VL: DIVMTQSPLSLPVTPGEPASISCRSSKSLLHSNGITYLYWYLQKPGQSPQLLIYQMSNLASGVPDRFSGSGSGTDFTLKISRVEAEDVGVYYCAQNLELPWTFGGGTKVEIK", "ka / M⁻¹ s⁻¹": 170000}
{"molecule": "H4L2 (antibody, human IgG1, V domains shown, human IgG1 isotype) VH: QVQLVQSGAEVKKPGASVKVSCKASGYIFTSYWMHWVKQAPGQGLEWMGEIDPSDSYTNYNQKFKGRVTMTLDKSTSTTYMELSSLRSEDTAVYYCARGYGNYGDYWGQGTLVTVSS VL: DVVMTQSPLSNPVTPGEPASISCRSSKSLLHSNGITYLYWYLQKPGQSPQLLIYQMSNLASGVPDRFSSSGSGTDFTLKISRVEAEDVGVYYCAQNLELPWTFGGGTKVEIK", "ka / M⁻¹ s⁻¹": 200000}

// moving on: another record for ka
H5L2 (antibody, human IgG1, V domains shown, human IgG1 isotype) VH: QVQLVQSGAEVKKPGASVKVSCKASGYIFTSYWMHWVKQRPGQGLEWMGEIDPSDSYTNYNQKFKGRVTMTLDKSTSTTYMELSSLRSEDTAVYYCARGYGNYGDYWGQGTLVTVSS VL: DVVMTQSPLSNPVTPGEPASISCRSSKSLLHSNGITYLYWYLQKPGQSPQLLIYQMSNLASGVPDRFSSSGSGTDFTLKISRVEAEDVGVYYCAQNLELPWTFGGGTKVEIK has a reported ka of 220000

Source listed as patent US20250297004A1.
